// data source = patent US20240408169A1

target: CyclinE1/CDK2 (Homo sapiens, UniProt P24864); construct: purchased Eurofins, discovery 14-475; test: Fluorescence Polarization (FP) competitive binding assay, Cyclin E1/Cdk2; conditions: 10 nM Cyclin E1/Cdk2, 2 nM FAM probe; average of 2-3 independent experiments; read-out: Cyclin E FP IC50;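 further: readings taken after two-hour equilibration at room temperature in HEPES buffer with NaCl, DTT, NP-40 and BSA, IC50 fitted from eight-concentration serial dilution series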
*1 amine or outer side, *2 acyl side, *3 side chain or, on linkers, in order; H or OH if unused. Where a SMILES comes first, the peptide text is derived from it. Bridges are numbered along the chain shown (N, C = ends). [ ]: non-standard residue; d: D form. The star is where a group is joined. X144 = CN([C@@H](Cc1cc(Cl)ccc1-c1ccc(N2CC(C)(F)C2)nc1)C(=O)[*:2])[*:1]; X13 = CN([C@@H](Cc1cc(Cl)ccc1-c1cnn(CCS(C)(=O)=O)c1)C(=O)[*:2])[*:1]; X58 = CC(C)C(=O)N1CC=C(c2ccc(Cl)cc2C[C@@H](C(=O)[*:2])N(C)[*:1])CC1; X116 = CN([C@@H](Cc1cc(Cl)ccc1-c1cnc2c(c1)ncn2C)C(=O)[*:2])[*:1]; X18 = CC(=O)N1CCC(=Cc2ccc(Cl)cc2C[C@@H](C(=O)[*:2])N(C)[*:1])CC1; X60 = CN([C@@H](Cc1cc(Cl)ccc1-c1cnn2ccncc12)C(=O)[*:2])[*:1]; NMehhhLys(Me) = CN([C@@H](CCCCCCCN(C)[*:3])C(=O)[*:2])[*:1]; X118 = Cc1cc(-c2ccc(Cl)cc2C[C@@H](C(=O)[*:2])N(C)[*:1])cnn1; X206 = CN([C@@H](Cc1cc(Cl)cnc1Cc1cnn(C)c1)C(=O)[*:2])[*:1]; X66 = CN([C@@H](Cc1cc(Cl)ccc1-c1cccnc1)C(=O)[*:2])[*:1]; NMe(hhhLys) = CN([C@@H](CCCCCCCN[*:3])C(=O)[*:2])[*:1]; Oxane2carbonyl(2R-CF3) = O=C([C@@]1(C(F)(F)F)CCCCO1)*; cBuCO(3,3-F2-1-CF3) = O=C(C1(C(F)(F)F)CC(F)(F)C1)*; X161 = Cc1ccc(F)cc1C[C@@H](C(=O)[*:2])N(C)[*:1]; X4 = Cc1ccc(Cl)cc1C[C@@H](C(=O)[*:2])N(C)[*:1]; Pro(trans-4-F) = O=C(O)[C@@H]1C[C@@H](F)CN1; Gly(cPr) = N[C@H](C(=O)O)C1CC1
Give pIC50 for every item shown.
Field pIC50 (float): negative decimal logarithm of the concentration in molar.

Prompt line: I'd like to know its pIC50. The compound in question is CC(=O)N1CCC(=Cc2ccc(Cl)cc2C[C@H]2C(=O)NCCCCCCC[C@H](N(C)C(=O)[C@@H](NC(=O)[C@@H]3C[C@@H](F)CN3C(=O)C3(C(F)(F)F)CC(F)(F)C3)C3CC3)C(=O)N[C@@H](CC(C)C)C(=O)N2C)CC1 [Example 288] ({cBuCO(3,3-F2-1-CF3)}-[Pro(trans-4-F)][Gly(cPr)][NMe(hhhLys)]L[X18]; lactam 3-C)
Response line: 6.44

Prompt line: Can you share its pIC50? I mean this compound: Cc1ccc(F)cc1C[C@H]1C(=O)NCCCCCCC[C@H](N(C)C(=O)[C@@H](NC(=O)[C@@H]2C[C@@H](F)CN2C(=O)C2(C(F)(F)F)CC(F)(F)C2)C2CC2)C(=O)N[C@@H](CC(C)C)C(=O)N1C [Example 264] ({cBuCO(3,3-F2-1-CF3)}-[Pro(trans-4-F)][Gly(cPr)][NMe(hhhLys)]L[X161]; lactam 3-C)
Response line: 6.54

Prompt line: Returns the measured pIC50 for the input compound. Input: CC(C)C[C@@H]1NC(=O)[C@@H](N(C)C(=O)[C@@H](NC(=O)[C@@H]2C[C@@H](F)CN2C(=O)C2(C(F)(F)F)CC(F)(F)C2)C2CC2)CCCCCCCNC(=O)[C@H](Cc2cc(Cl)ccc2C2=CCN(C(=O)C(C)C)CC2)N(C)C1=O [Example 98] ({cBuCO(3,3-F2-1-CF3)}-[Pro(trans-4-F)][Gly(cPr)][NMe(hhhLys)]L[X58]; lactam 3-C)
Response line: 5.96

Prompt line: // lookup pIC50 for CC(C)C[C@@H]1NC(=O)[C@@H](N(C)C(=O)[C@@H](NC(=O)[C@@H]2C[C@@H](F)CN2C(=O)C2(C(F)(F)F)CC(F)(F)C2)C2CC2)CCCCCCCN(C)C(=O)[C@H](Cc2cc(Cl)ccc2-c2ccc(N3CC(C)(F)C3)nc2)N(C)C1=O [Example 402] ({cBuCO(3,3-F2-1-CF3)}-[Pro(trans-4-F)][Gly(cPr)][NMehhhLys(Me)]L[X144]; lactam 3-C)
Response line: 6.02

Prompt line: I am curious: what pIC50 value has been reported for CC(C)C[C@@H]1NC(=O)[C@@H](N(C)C(=O)[C@@H](NC(=O)[C@@H]2C[C@@H](F)CN2C(=O)[C@@]2(C(F)(F)F)CCCCO2)C2CC2)CCCCCCCN(C)C(=O)[C@H](Cc2cc(Cl)cnc2Cc2cnn(C)c2)N(C)C1=O [Example 332] ({Oxane2carbonyl(2R-CF3)}-[Pro(trans-4-F)][Gly(cPr)][NMehhhLys(Me)]L[X206]; lactam 3-C) ?
Response line: 7.00

Prompt line: Given the compound CC(C)C[C@@H]1NC(=O)[C@@H](N(C)C(=O)[C@@H](NC(=O)[C@@H]2C[C@@H](F)CN2C(=O)C2(C(F)(F)F)CC(F)(F)C2)C2CC2)CCCCCCCN(C)C(=O)[C@H](Cc2cc(Cl)ccc2-c2cnn3ccncc23)N(C)C1=O [Example 305] ({cBuCO(3,3-F2-1-CF3)}-[Pro(trans-4-F)][Gly(cPr)][NMehhhLys(Me)]L[X60]; lactam 3-C) , what is its reported pIC50?
Response line: 5.76

Prompt line: # lookup: pIC50 of CC(C)C[C@@H]1NC(=O)[C@@H](N(C)C(=O)[C@@H](NC(=O)[C@@H]2C[C@@H](F)CN2C(=O)C2(C(F)(F)F)CC(F)(F)C2)C2CC2)CCCCCCCN(C)C(=O)[C@H](Cc2cc(Cl)ccc2-c2cnn(CCS(C)(=O)=O)c2)N(C)C1=O [Example 257] ({cBuCO(3,3-F2-1-CF3)}-[Pro(trans-4-F)][Gly(cPr)][NMehhhLys(Me)]L[X13]; lactam 3-C)
Response line: 6.92

Prompt line: Need pIC50, item CC(C)C[C@@H]1NC(=O)[C@@H](N(C)C(=O)[C@@H](NC(=O)[C@@H]2C[C@@H](F)CN2C(=O)C2(C(F)(F)F)CC(F)(F)C2)C2CC2)CCCCCCCN(C)C(=O)[C@H](Cc2cc(Cl)ccc2-c2cnc3c(c2)ncn3C)N(C)C1=O [Example 177] ({cBuCO(3,3-F2-1-CF3)}-[Pro(trans-4-F)][Gly(cPr)][NMehhhLys(Me)]L[X116]; lactam 3-C)
Response line: 6.34

Prompt line: Give its pIC50 value. Item: CC(C)C[C@@H]1NC(=O)[C@@H](N(C)C(=O)[C@@H](NC(=O)[C@@H]2C[C@@H](F)CN2C(=O)C2(C(F)(F)F)CC(F)(F)C2)C2CC2)CCCCCCCNC(=O)[C@H](Cc2cc(Cl)ccc2-c2cccnc2)N(C)C1=O [Example 276] ({cBuCO(3,3-F2-1-CF3)}-[Pro(trans-4-F)][Gly(cPr)][NMe(hhhLys)]L[X66]; lactam 3-C)
Response line: 6.15

Prompt line: Entry Cc1ccc(Cl)cc1C[C@H]1C(=O)N(C)CCCCCCC[C@H](N(C)C(=O)[C@@H](NC(=O)[C@@H]2C[C@@H](F)CN2C(=O)C2(C(F)(F)F)CC(F)(F)C2)C2CC2)C(=O)N[C@@H](CC(C)C)C(=O)N1C [Example 263] ({cBuCO(3,3-F2-1-CF3)}-[Pro(trans-4-F)][Gly(cPr)][NMehhhLys(Me)]L[X4]; lactam 3-C) has what pIC50?
Response line: 6.70

Prompt line: May I ask what pIC50 has been recorded for Cc1cc(-c2ccc(Cl)cc2C[C@H]2C(=O)N(C)CCCCCCC[C@H](N(C)C(=O)[C@@H](NC(=O)[C@@H]3C[C@@H](F)CN3C(=O)C3(C(F)(F)F)CC(F)(F)C3)C3CC3)C(=O)N[C@@H](CC(C)C)C(=O)N2C)cnn1 [Example 296] ({cBuCO(3,3-F2-1-CF3)}-[Pro(trans-4-F)][Gly(cPr)][NMehhhLys(Me)]L[X118]; lactam 3-C) ?
Response line: 5.55

Prompt line: Given the entry COCn1cc(-c2ccc(Cl)cc2C[C@H]2C(=O)N(C)CCCCC=CC[C@H](N(C)C(=O)[C@@H](NC(=O)[C@@H]3C[C@@H](F)CN3C(=O)C3(C(F)(F)F)CCC3)C3CC3)C(=O)N[C@@H](CC(C)C)C(=O)N2C)cn1 , report its measured pIC50.
Response line: 6.52
